// data source = the supplement of paper PMC10567573

Listing: protein stability index of selected variants
B1: ZBED2 (parent)
chain: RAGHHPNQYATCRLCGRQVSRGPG

# Variants of: B1
# Experimental Details: protein stability index of a GFP-peptide fusion (GPS, HEK-293T) (PSI 1-6); higher = more stable;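 note: lentivirally expressed fusions sorted by FACS into six bins by GFP to DsRed ratio, PSI derived from sequencing read proportions per bin multiplied by bin number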
# Experimental Setup: c terminus: a fixed tail appended
Measured Parameter: protein stability index

- Mutant Id: "H4V"
  Data Value: 2.31
- Mutant Id: "C12I"
  Data Value: 2.64
- Mutant Id: "V19S"
  Data Value: 1.65
- Mutant Id: "R21I"
  Data Value: 2.35
- Mutant Id: "Q8I"
  Data Value: 1.57
- Mutant Id: "R1T"
  Data Value: 2.07
- Mutant Id: "A10M"
  Data Value: 1.8
- Mutant Id: "P6N"
  Data Value: 1.72
- Mutant Id: "G22A"
  Data Value: 2.21
- Mutant Id: "H5G"
  Data Value: 1.68
- Mutant Id: "A10Y"
  Data Value: 1.34
- Mutant Id: "R1S"
  Data Value: 1.86
- Mutant Id: "Y9I"
  Data Value: 2.06
- Mutant Id: "H4G"
  Data Value: 2.21
- Mutant Id: "S20N"
  Data Value: 1.79
- Mutant Id: "C12F"
  Data Value: 1.81
- Mutant Id: "R1P"
  Data Value: 1.04
- Mutant Id: "G16C"
  Data Value: 1.25
- Mutant Id: "R17F"
  Data Value: 1.96
- Mutant Id: "P6D"
  Data Value: 2.02
- Mutant Id: "V19Y"
  Data Value: 2.24
- Mutant Id: "G16Y"
  Data Value: 3.58
- Mutant Id: "G22R"
  Data Value: 1.95
- Mutant Id: "R1H"
  Data Value: 2.13
- Mutant Id: "G16W"
  Data Value: 3.77
- Mutant Id: "S20R"
  Data Value: 2.26
- Mutant Id: "R1V"
  Data Value: 1.33
- Mutant Id: "A10R"
  Data Value: 1.43
- Mutant Id: "C12S"
  Data Value: 3.52
- Mutant Id: "C15G"
  Data Value: 2.6
- Mutant Id: "R1L"
  Data Value: 1.78
- Mutant Id: "L14T"
  Data Value: 1.49
- Mutant Id: "P23T"
  Data Value: 2.2
- Mutant Id: "Q18S"
  Data Value: 1.23
- Mutant Id: "H5M"
  Data Value: 2.41
- Mutant Id: "P23R"
  Data Value: 2.8
- Mutant Id: "G3E"
  Data Value: 2.06
- Mutant Id: "C15P"
  Data Value: 3.18
- Mutant Id: "G3W"
  Data Value: 3.31
- Mutant Id: "Y9L"
  Data Value: 1.6
- Mutant Id: "P6G"
  Data Value: 2.54
- Mutant Id: "A10E"
  Data Value: 1.6
- Mutant Id: "T11F"
  Data Value: 3.34
- Mutant Id: "Q18G"
  Data Value: 2.68
- Mutant Id: "G22C"
  Data Value: 3.07
- Mutant Id: "R21K"
  Data Value: 1.69
